# MEASURED ON: human recombinant transporter protein norepinephrine (NET) (Homo sapiens (Human), UniProt P23975)
# Sequence (P23975 whole entry): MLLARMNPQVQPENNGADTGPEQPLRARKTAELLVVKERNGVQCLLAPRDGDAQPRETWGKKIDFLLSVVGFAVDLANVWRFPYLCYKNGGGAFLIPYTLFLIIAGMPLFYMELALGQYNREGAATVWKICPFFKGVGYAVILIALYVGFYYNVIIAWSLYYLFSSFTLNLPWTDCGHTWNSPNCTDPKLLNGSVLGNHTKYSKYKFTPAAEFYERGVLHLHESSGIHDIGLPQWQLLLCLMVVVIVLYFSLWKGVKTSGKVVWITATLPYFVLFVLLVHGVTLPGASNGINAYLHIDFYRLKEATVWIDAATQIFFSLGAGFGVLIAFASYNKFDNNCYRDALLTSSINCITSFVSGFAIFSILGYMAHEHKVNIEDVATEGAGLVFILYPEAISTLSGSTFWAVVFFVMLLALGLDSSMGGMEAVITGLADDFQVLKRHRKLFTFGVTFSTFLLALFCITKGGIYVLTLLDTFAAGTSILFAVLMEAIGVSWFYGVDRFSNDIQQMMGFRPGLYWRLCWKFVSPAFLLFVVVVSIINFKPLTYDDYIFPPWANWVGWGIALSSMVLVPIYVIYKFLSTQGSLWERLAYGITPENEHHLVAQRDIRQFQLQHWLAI
# TEST NAME: radioligand binding assay, norepinephrine transporter
# MEASUREMENT CONTEXT: human recombinant NET; 11 test concentrations 0.1 nm to 1 μM; duplicates; read-out: NET Ki
Hi! Just check whether Ki is below 2 µM. Below gives y, equal or above gives n.

COMPOUND: CCOc1ccc(C2(C[C@@H](C)CCNCCCC(N)=O)CCC2)cc1 (single isomer, unassigned) [33b -(R)-Isomer]
LABEL: n
//
COMPOUND: CCOc1ccc(C2(C(CC(C)C)NCCOC(=O)CC)CCC2)cc1 (stereo not drawn) [Compound 12u]
LABEL: n
//
COMPOUND: CC(CCNCCCC(N)=O)CC1(c2ccc(Cl)c(Cl)c2)CCC1 (racemic) [33a -Racemic]
LABEL: y
//
COMPOUND: CCOc1ccc(C2(CC(C)CCNCCCC(N)=O)CCC2)cc1 (racemic) [33b -Racemic]
LABEL: n
//
COMPOUND: CCOc1ccc(C2(C[C@H](C)CCNCCCC(N)=O)CCC2)cc1 (single isomer, unassigned) [33b -(S)-Isomer]
LABEL: y
//
COMPOUND: C[C@@H](CCNCCCC(N)=O)CC1(c2ccc(Cl)c(Cl)c2)CCC1 (single isomer, unassigned) [33a -(R)-Isomer]
LABEL: y

###

# MEASURED ON: human recombinant transporter protein serotonin (SERT) (Homo sapiens (Human))
# TEST NAME: radioligand binding assay, serotonin transporter
# MEASUREMENT CONTEXT: human recombinant SERT; 11 test concentrations 0.1 nm to 1 μM; duplicates; read-out: SERT Ki
# Experimental: The monoamine transporters inhibitory activities of selected compounds cycloalkylmethylamine derivatives comprising Formula (I) are reported herein. […] The assays were carried out in duplicates and the quantitative data are reported as Ki in the TABLE 1.
pKi: −log10 of the molar value.
Each item that follows carries a reported pKi.
PARAMETER: pKi

COMPOUND: CCOc1ccc(C2(CC(C)CCNCCCC(N)=O)CCC2)cc1 (racemic) [33b -Racemic]
QUANTITATIVE RESULT: 8.26
//
COMPOUND: C[C@@H](CCNCCCC(N)=O)CC1(c2ccc(Cl)c(Cl)c2)CCC1 (single isomer, unassigned) [33a -(R)-Isomer]
QUANTITATIVE RESULT: 8.64
//
COMPOUND: CCOc1ccc(C2(C[C@@H](C)CCNCCCC(N)=O)CCC2)cc1 (single isomer, unassigned) [33b -(R)-Isomer]
QUANTITATIVE RESULT: 8.55
//
COMPOUND: CCCC(=O)NCCNC(CC(C)C)C1(c2ccc(Cl)c(Cl)c2)CCC1 (stereo not shown) [Compound 31a]
QUANTITATIVE RESULT: 7.56

###

Items are presented alongside their recorded pKi.
# MEASURED ON: human recombinant transporter protein serotonin (SERT) (Homo sapiens (Human), UniProt P31645)
# TEST NAME: radioligand binding assay, serotonin transporter
# MEASUREMENT CONTEXT: human recombinant SERT; 11 test concentrations 0.1 nm to 1 μM; duplicates; read-out: SERT Ki
pKi: −log10 of the molar value.
PARAMETER: pKi

MOLECULE: CCOc1ccc(C2(C[C@H](C)CCNCCCC(N)=O)CCC2)cc1 (single isomer, unassigned) [33b -(S)-Isomer]
PARAMETER: pKi
QUANTITATIVE RESULT: 6.48
--
MOLECULE: CCOC(=O)NCCNC(CC(C)C)C1(c2ccc(Cl)c(Cl)c2)CCC1 (stereo not shown) [Compound 21a]
PARAMETER: pKi
QUANTITATIVE RESULT: 9.00
--
MOLECULE: CCOc1ccc(C2(C(CC(C)C)NCCOC(=O)CC)CCC2)cc1 (stereo not shown) [Compound 12u]
PARAMETER: pKi
QUANTITATIVE RESULT: 8.24
--
MOLECULE: CC(CCNCCCC(N)=O)CC1(c2ccc(Cl)c(Cl)c2)CCC1 (racemic) [33a -Racemic]
PARAMETER: pKi
QUANTITATIVE RESULT: 8.09

###

# MEASURED ON: human recombinant transporter protein norepinephrine (NET) (Homo sapiens (Human))
# TEST NAME: radioligand binding assay, norepinephrine transporter
pKi: −log10 of the molar value.
Below, each entry is listed alongside its reported pKi.
PARAMETER: pKi

COMPOUND: CCOC(=O)NCCNC(CC(C)C)C1(c2ccc(Cl)c(Cl)c2)CCC1 (stereo not shown) [Compound 21a]
QUANTITATIVE RESULT: 7.87

COMPOUND: CCOC(=O)NCCNC(CC(C)C)C1(c2ccc(OCC)cc2)CCC1 (stereo not shown) [Compound 21b]
QUANTITATIVE RESULT: 5.72

COMPOUND: CCCC(=O)NCCNC(CC(C)C)C1(c2ccc(OCC)cc2)CCC1 (stereo not shown) [Compound 31b]
QUANTITATIVE RESULT: 5.33

COMPOUND: CCCC(=O)NCCNC(CC(C)C)C1(c2ccc(Cl)c(Cl)c2)CCC1 (stereo not shown) [Compound 31a]
QUANTITATIVE RESULT: 7.11

###

# MEASURED ON: human recombinant transporter protein serotonin (SERT) (Homo sapiens (Human), UniProt P31645)
# TEST NAME: radioligand binding assay, serotonin transporter
pKi: −log10 of the molar value.
# pKi per record follows
PARAMETER: pKi

COMPOUND: CCCC(=O)NCCNC(CC(C)C)C1(c2ccc(OCC)cc2)CCC1 (centres unmarked) [Compound 31b]
PARAMETER: pKi
QUANTITATIVE RESULT: 7.60

COMPOUND: CCOC(=O)NCCNC(CC(C)C)C1(c2ccc(OCC)cc2)CCC1 (centres unmarked) [Compound 21b]
PARAMETER: pKi
QUANTITATIVE RESULT: 8.70

###

Listing of entries alongside the reported pKi.
# MEASURED ON: human recombinant transporter protein dopamine (DAT) (Homo sapiens (Human), UniProt Q01959)
# Sequence (Q01959 whole entry): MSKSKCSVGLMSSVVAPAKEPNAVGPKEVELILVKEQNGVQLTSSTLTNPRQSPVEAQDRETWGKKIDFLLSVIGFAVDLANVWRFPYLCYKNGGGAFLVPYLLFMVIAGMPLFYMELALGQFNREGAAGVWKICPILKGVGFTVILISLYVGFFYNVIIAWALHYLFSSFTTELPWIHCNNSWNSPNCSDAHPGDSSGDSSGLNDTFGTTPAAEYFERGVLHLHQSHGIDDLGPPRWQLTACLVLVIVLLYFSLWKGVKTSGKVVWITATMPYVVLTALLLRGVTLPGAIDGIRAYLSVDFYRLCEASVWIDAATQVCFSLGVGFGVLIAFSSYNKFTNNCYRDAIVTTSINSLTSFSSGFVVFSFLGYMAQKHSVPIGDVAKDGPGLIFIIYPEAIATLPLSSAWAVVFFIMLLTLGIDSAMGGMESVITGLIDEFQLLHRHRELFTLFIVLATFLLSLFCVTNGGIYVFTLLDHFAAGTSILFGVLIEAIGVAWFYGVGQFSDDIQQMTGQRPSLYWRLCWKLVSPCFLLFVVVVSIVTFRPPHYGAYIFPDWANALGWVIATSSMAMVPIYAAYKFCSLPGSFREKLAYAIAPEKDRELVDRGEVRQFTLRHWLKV
# TEST NAME: radioligand binding assay, dopamine transporter
# MEASUREMENT CONTEXT: human recombinant DAT; 11 test concentrations 0.1 nm to 1 μM; duplicates; read-out: DAT Ki
pKi: −log10 of the molar value.
PARAMETER: pKi

MOLECULE: CCOc1ccc(C2(C[C@H](C)CCNCCCC(N)=O)CCC2)cc1 (single isomer, unassigned) [33b -(S)-Isomer]
QUANTITATIVE RESULT: 5.40
//
MOLECULE: CCOc1ccc(C2(C[C@@H](C)CCNCCCC(N)=O)CCC2)cc1 (single isomer, unassigned) [33b -(R)-Isomer]
QUANTITATIVE RESULT: 6.89
//
MOLECULE: CCOc1ccc(C2(C(CC(C)C)NCCOC(=O)CC)CCC2)cc1 (stereo not shown) [Compound 12u]
QUANTITATIVE RESULT: 7.09
//
MOLECULE: CCOc1ccc(C2(CC(C)CCNCCCC(N)=O)CCC2)cc1 (racemic) [33b -Racemic]
QUANTITATIVE RESULT: 6.33
//
MOLECULE: CCCC(=O)NCCNC(CC(C)C)C1(c2ccc(OCC)cc2)CCC1 (stereo not shown) [Compound 31b]
QUANTITATIVE RESULT: 6.60
//
MOLECULE: C[C@@H](CCNCCCC(N)=O)CC1(c2ccc(Cl)c(Cl)c2)CCC1 (single isomer, unassigned) [33a -(R)-Isomer]
QUANTITATIVE RESULT: 9.04
//
MOLECULE: CC(CCNCCCC(N)=O)CC1(c2ccc(Cl)c(Cl)c2)CCC1 (racemic) [33a -Racemic]
QUANTITATIVE RESULT: 8.82

###

# MEASURED ON: human recombinant transporter protein dopamine (DAT) (Homo sapiens (Human), UniProt Q01959)
# TEST NAME: radioligand binding assay, dopamine transporter
pKi: −log10 of the molar value.
This section presents compounds with their documented pKi values.
PARAMETER: pKi

COMPOUND: CCOC(=O)NCCNC(CC(C)C)C1(c2ccc(Cl)c(Cl)c2)CCC1 (stereo not drawn) [Compound 21a]
QUANTITATIVE RESULT: 7.42
//
COMPOUND: CCCC(=O)NCCNC(CC(C)C)C1(c2ccc(Cl)c(Cl)c2)CCC1 (stereo not drawn) [Compound 31a]
QUANTITATIVE RESULT: 7.28
//
COMPOUND: CCOC(=O)NCCNC(CC(C)C)C1(c2ccc(OCC)cc2)CCC1 (stereo not drawn) [Compound 21b]
QUANTITATIVE RESULT: 6.80
